# cytotoxicity at 10 µM listing for each entry below
Assay: Toxicity liver stage against HepG2, at 10uM
Assay type: cell-based
Parameters: test concentration 10 uM, cell line HepG2-A16-CD81EGFP
Details: human, HepG2-A16-CD81EGFP cells; read-out: INHIBITION

COMPOUND: O=C1[C@@H]2CCN(Cc3ccoc3)C[C@@H]2OCCN1Cc1cccc(F)c1
cytotoxicity at 10 µM, %: -98.2
//
COMPOUND: Cc1ccc(S(=O)(=O)NC2=NCN(CCc3cccs3)CN2)cc1
cytotoxicity at 10 µM, %: 4.77
//
COMPOUND: O=C(NCc1nc[nH]n1)c1cc(COc2cccc(C(F)(F)F)c2)[nH]n1
cytotoxicity at 10 µM, %: -3.26
//
COMPOUND: Cc1ccc(N2CCC3(CCCN(C(=O)c4cnccn4)C3)C2)nn1 (stereo unspecified)
cytotoxicity at 10 µM, %: 1.14
//
COMPOUND: CS(=O)(=O)N1CCN(C(=O)c2cc(-c3ccco3)cs2)CC1
cytotoxicity at 10 µM, %: 4.73
//
COMPOUND: CC(C)c1n[nH]c(C2CN(C(=O)c3ncoc3C(C)C)CCO2)n1 (stereo unspecified)
cytotoxicity at 10 µM, %: -7.22
//
COMPOUND: O=C1NCCCCC1Sc1ccccc1F (stereo unspecified)
cytotoxicity at 10 µM, %: 9.43
//
COMPOUND: COCCN1CCN(C(=O)c2ccc(COC)o2)[C@H]2CS(=O)(=O)C[C@H]21
cytotoxicity at 10 µM, %: -6.15
//
COMPOUND: Cc1ccc(-c2cc(N)c(=O)n(CC(=O)NCC3CCCCC3)n2)s1
cytotoxicity at 10 µM, %: 2.44
//
COMPOUND: CCOc1cc(CN(C)CCC(=O)OC)ccc1OC(F)F
cytotoxicity at 10 µM, %: -0.769
//
COMPOUND: Cc1cc(C(=O)N2CCCCC2C)ccc1NCCCO (stereo unspecified)
cytotoxicity at 10 µM, %: -4.35
//
COMPOUND: CCC(=O)N1CCCC1c1n[nH]cc1-c1ccccc1F (stereo unspecified)
cytotoxicity at 10 µM, %: -3.02
//
COMPOUND: CC(C)(C)c1nnc(CN2CCOC(Cn3cccn3)C2)o1 (stereo unspecified)
cytotoxicity at 10 µM, %: -10.2
//
COMPOUND: CCn1cnnc1C1CCN(C(=O)c2cc3c(s2)CCCC3)CC1
cytotoxicity at 10 µM, %: -1.76
//
COMPOUND: Cc1nn(CC(O)CN2CCc3ccccc3C2)c(=O)c2ccccc12 (stereo unspecified)
cytotoxicity at 10 µM, %: 11.1
//
COMPOUND: CCN(C)c1ncnc2c1CCN(Cc1ccoc1)CC2
cytotoxicity at 10 µM, %: -0.439
//
COMPOUND: CN(Cc1cccnc1)C1COC2(CCN(Cc3nccs3)CC2)C1 (stereo unspecified)
cytotoxicity at 10 µM, %: 6.37
//
COMPOUND: CNc1ncc(C(=O)N2CCC3(CC2)Nc2ccccc2NC3=O)cn1
cytotoxicity at 10 µM, %: 1.02
//
COMPOUND: CS(=O)(=O)NCCC(=O)Nc1cnn(-c2ccccc2Cl)c1
cytotoxicity at 10 µM, %: -0.0414
//
COMPOUND: Cc1cnn(CCNCC(O)COc2ccc(Cl)cc2Cl)c1 (stereo unspecified)
cytotoxicity at 10 µM, %: -1.76
//
COMPOUND: CN1CCN(CC2CC2)C(=O)C12CCN(C(=O)c1ccnnc1)CC2
cytotoxicity at 10 µM, %: 8.49
//
COMPOUND: COc1cc(S(=O)(=O)N2CCc3ccc(F)cc32)cc(C(=O)O)c1OC
cytotoxicity at 10 µM, %: 7.12
//
COMPOUND: Cc1ccc(C(NC(=O)CN2CCc3cncnc3C2)C2CC2)cc1 (stereo unspecified)
cytotoxicity at 10 µM, %: 9.31
//
COMPOUND: O=C(NCC1CCS(=O)(=O)C1)c1ccc(NC(=O)c2ccco2)cc1 (stereo unspecified)
cytotoxicity at 10 µM, %: 3.25
//
COMPOUND: CC(=O)NCCNC(=O)c1sccc1Br
cytotoxicity at 10 µM, %: 4.2
//
COMPOUND: Cn1ncnc1NCc1ccc(F)cc1
cytotoxicity at 10 µM, %: 0.361
